Data origin, for the record: patent US8338460B2

# ASSAY INFO: Comparative test of solubility
# Assay type: physicochemical
# REPORTED CONDITIONS: 200 mM potassium phosphate buffer, pH 7.4, aqueous buffer, thermodynamic from solid; pH7.4, 1 mg in 1 ml, shaken 75 min; read-out: Solibility to 200 mM potassium phosphate buffer
READOUT LABEL: solubility thermodynamic at 75 min (µg/mL)
Give the number; µg/mL is assumed, so skip it.

Illustrative cases are given below, each with its answer.
Cc1nsc(NC(=O)c2nc(Sc3nncn3C)ccc2Sc2ccc(O[C@@H]3CCN(C(C)C)C3)cc2)n1 | 86.8
Cc1nsc(NC(=O)c2nc(Sc3nncn3C)ccc2Sc2ccc(CCO)cc2)n1 [(A), reference compound] | 3.4
Cc1nsc(NC(=O)c2nc(Sc3nncn3C)ccc2Sc2ccc(OCCN3CCCCC3)cc2)n1 | 239
Cc1nsc(NC(=O)c2nc(Sc3nncn3C)ccc2Sc2ccc(OCCN(C)C)cc2)n1 | 17.5
Cc1nsc(NC(=O)c2nc(Sc3nncn3C)ccc2Sc2ccc(OC[C@@H]3CCCN3C)cc2)n1 | 308

Name the reported solubility thermodynamic at 75 min value associated with the compound "CCN(C)CCOc1ccc(Sc2ccc(Sc3nncn3C)nc2C(=O)Nc2nc(C)ns2)cc1"
122

Lookup "CCN(CC)CCOc1ccc(Sc2ccc(Sc3nncn3C)nc2C(=O)Nc2nc(C)ns2)cc1"
298

Lookup "CCN1CC(Oc2ccc(Sc3ccc(Sc4nncn4C)nc3C(=O)Nc3nc(C)ns3)cc2)C1"
13.8
